Cited source: patent US8815935B2

# Target Or Test System: GGTase-I (Rattus norvegicus, UniProt P53610+Q04631)
# Construct: purchased JENA BIOSCIENCE
# Method Summary: In vitro GGTase-I enzyme assay (IC50, kinetics)
# Format: biochemical
# Condition Info: Tables 5, 14; read-out: In vitro (enzyme assay) IC50, GGTase I
Recorded Metric: pIC50
Please treat pIC50 as minus the base-10 logarithm of the molar concentration.

Known pIC50 results, listed for orientation:
| Compound | pIC50 |
| --- | --- |
| CC(C)CC(NC(=O)C1=CCC(c2cccc(Cl)c2)N(S(=O)(=O)c2ccc(Cl)cc2)C1c1cccc(Cl)c1)C(=O)O (stereo not shown) [P61-H08] | 6.74 |
| NC(=O)[C@H](Cc1ccccc1)NC(=O)C1=CC[C@@H](c2cccc(Cl)c2)N(S(=O)(=O)c2ccc(Cl)cc2)C1c1cccc(Cl)c1 (stereo partly shown) [P61-D02] | 6.22 |

Log: GGTase-I (Rattus norvegicus, UniProt P53610+Q04631), compound O=C(NC(Cc1ccccc1)C(=O)O)C1=CCC(c2cccc(Cl)c2)N(S(=O)(=O)c2ccc(Cl)cc2)C1c1cccc(Cl)c1 (stereo not shown) [P61-H09] , pIC50 = 7.68

Log: GGTase-I (Rattus norvegicus, UniProt P53610+Q04631), compound Cc1ccccc1S(=O)(=O)N1[C@@H](c2cccc(Cl)c2)C(C(=O)O)=CC[C@H]1c1ccc(Cl)cc1 [P3-E5] , pIC50 = 6.50

Log: GGTase-I (Rattus norvegicus, UniProt P53610+Q04631), compound Cc1ccccc1S(=O)(=O)N1[C@@H](c2ccc(Cl)cc2)C(C(=O)O)=C[C@H]1C(C)(C)C (relative stereo) [P5-H6] , pIC50 = 6.33

Log: GGTase-I (Rattus norvegicus, UniProt P53610+Q04631), compound NC(=O)[C@H](Cc1ccccc1)NC(=O)C1=CC[C@@H](c2cccc(Br)c2)N(S(=O)(=O)c2ccc(Cl)cc2)C1c1cccc(Cl)c1 (stereo partly shown) [P61-G02] , pIC50 = 6.35

Log: GGTase-I (Rattus norvegicus, UniProt P53610+Q04631), compound O=C(NC(Cc1ccccc1)C(=O)O)C1=CCC(c2cccc(Br)c2)N(S(=O)(=O)c2ccc(Cl)cc2)C1c1cccc(Cl)c1 (stereo not shown) [P61-G07] , pIC50 = 7.15

----------
Recorded measurements of pIC50, one per entry
# Target Or Test System: GGTase-I (Rattus norvegicus, UniProt P53610+Q04631)
# Construct: purchased JENA BIOSCIENCE
# Method Summary: In vitro GGTase-I enzyme assay (IC50, kinetics)
# Assay type: biochemical
# Condition Info: Tables 3, 5, 7; read-out: In vitro (enzyme assay) IC50, GGTase I
Please treat pIC50 as minus the base-10 logarithm of the molar concentration.

Known pIC50 results, listed for orientation:
| Molecule | pIC50 |
| --- | --- |
| CC(C)C[C@H](NC(=O)C1=CC[C@@H](c2cccc(Br)c2)N(S(=O)(=O)c2ccc(Cl)cc2)C1c1cccc(Cl)c1)C(N)=O (some centres unmarked) | 4.41 |
| Cc1ccccc1S(=O)(=O)N1[C@@H](c2ccc(Cl)cc2)C(C(N)=O)=C[C@H]1C(C)(C)C | 5.80 |

According to the records, this molecule Cc1ccccc1S(=O)(=O)N1C(c2ccc(Cl)cc2)C(C(=O)NC(Cc2ccccc2)C(N)=O)=CC1C(C)(C)C (centres unmarked) displays pIC50 of 6.00

According to the records, this molecule CONC(=O)C1=C[C@@H](C(C)(C)C)N(S(=O)(=O)c2ccccc2C)[C@H]1c1ccc(Cl)cc1 displays pIC50 of 5.42

According to the records, this molecule CC(C)(C)[C@@H]1C=C(C(=O)N[C@@H](Cc2ccccc2)C(N)=O)[C@H](c2ccc(Br)cc2)N1S(=O)(=O)c1ccccc1Cl [P61-B08] displays pIC50 of 4.80

According to the records, this molecule CC(C)(C)[C@@H]1C=C(C(=O)N[C@@H](Cc2ccccc2)C(N)=O)[C@H](c2ccc(Cl)c(Cl)c2)N1S(=O)(=O)C(C)(C)C [P61-E02] displays pIC50 of 5.57

According to the records, this molecule Cc1ccccc1S(=O)(=O)N1[C@@H](c2ccc(Cl)cc2)C(C(=O)O)=C[C@H]1C(C)(C)C [drawing 136] displays pIC50 of 6.30

----------
# Target Or Test System: GGTase-I (Rattus norvegicus, UniProt P53610+Q04631)
# Construct: purchased JENA BIOSCIENCE
# Method Summary: In vitro GGTase-I enzyme assay (IC50, kinetics)
# Assay type: biochemical
# Condition Info: Tables 3, 5, 7; read-out: In vitro (enzyme assay) IC50, GGTase I
pIC50: −log10 of the molar value.
Recorded Metric: pIC50

Known pIC50 results, listed for orientation:
| Molecule | Target Or Test System | pIC50 |
| --- | --- | --- |
| COC(=O)[C@H](Cc1ccccc1)NC(=O)C1=C[C@@H](C(C)(C)C)N(S(=O)(=O)c2ccccc2C)[C@H]1c1ccc(Cl)cc1 [P61-A04] | GGTase-I (Rattus norvegicus, UniProt P53610+Q04631) | < 4.30 |
| COC(=O)C(CC(C)C)NC(=O)C1=CCC(c2cccc(Cl)c2)N(S(=O)(=O)c2ccc(Br)cc2)C1c1cccc(Br)c1 (stereo not drawn) [P67-A04] | GGTase-I (Rattus norvegicus, UniProt P53610+Q04631) | < 4.70 |
| NC(=O)[C@H](Cc1ccccc1)NC(=O)C1=CC[C@@H](c2cccc(Br)c2)N(S(=O)(=O)c2ccc(Cl)cc2)C1c1cccc(Cl)c1 (stereo partly drawn) [P61-D05] | GGTase-I (Rattus norvegicus, UniProt P53610+Q04631) | < 4.70 |
| CC(C)C[C@H](NC(=O)C1=CC[C@@H](c2cccc(Cl)c2)N(S(=O)(=O)c2ccc(Br)cc2)C1c1cccc(Br)c1)C(N)=O (stereo partly drawn) [P61-C09] | GGTase-I (Rattus norvegicus, UniProt P53610+Q04631) | < 4.30 |
| CC(C)(C)[C@@H]1C=C(C(=O)N[C@@H](Cc2ccccc2)C(N)=O)[C@H](c2ccc(Cl)c(Cl)c2)N1S(=O)(=O)c1ccccc1Br [P61-E03] | GGTase-I (Rattus norvegicus, UniProt P53610+Q04631) | < 4.70 |

Let us examine a further case.
According to the records, this molecule CC(C)C[C@H](NC(=O)C1=CC[C@@H](c2cccc(Br)c2)N(S(=O)(=O)c2ccc(F)cc2)[C@H]1c1cccc(Cl)c1)C(N)=O [P61-D03] displays pIC50 of 5.16

----------
# Test system: Jurkat cells
# Method Summary: Jurkat cell growth inhibition
# Assay type: cell-based, human
# Condition Info: Homo sapiens, Jurkat, 72 h; 3 days, CCK-8, vs DMSO; read-out: IC50, Jurkat (Blood)
# Protocol: In Table 4 in cell GI50 values for the growth inhibition of Jurkat cells are reported. The GI50 value is the concentration of a test compound needed to produce 50% growth inhibition in the cell type listed. […] Panc-1 cells (Pancreatic cancer cell line) and Jurkat cells (T-cell leukemia) were treated with 12.5 μM of P5-H6 or 12.5 μM of mP5-H6a for 72 hours. The cell number was counted as described in Example 5. […]
Recorded Metric: pIC50
Please treat pIC50 as minus the base-10 logarithm of the molar concentration.

Log: Jurkat cells, compound Cc1ccccc1S(=O)(=O)N1C(c2ccc(Cl)cc2)C(C(=O)NC(Cc2ccccc2)C(N)=O)=CC1C(C)(C)C (stereo not shown) , pIC50 = 5.54

----------
# Test system: Capan-2
# Method Summary: Capan-2 cell growth inhibition
# Assay type: cell-based, human
# Condition Info: Homo sapiens, Capan-2, 72 h; 3 days, CCK-8, vs DMSO; read-out: IC50, Capan-2 (Pancreas)
# Experimental: In FIG. 9-24 in vitro IC50 values for the GGTase I activity are reported. […] Cell viability was determined by Cell Counting Kit-8 (CCK-8, Dojindo, Kumamoto, Japan) as described previously (31). Cell viability was calculated relative to the DMSO control. Cell cycle profile was analyzed by flow cytometry as described previously (32).
Recorded Metric: IC50

According to the records, this compound Cc1ccccc1S(=O)(=O)N1C(c2ccc(Cl)cc2)C(C(=O)NC(Cc2ccccc2)C(N)=O)=CC1C(C)(C)C (stereo not shown) [P61-A6] displays IC50 of 11.5 µM

----------
# Method Summary: Pharmacokinetics (serum levels) after IP dosing
# Type: in vivo, mice
# Condition Info: mouse, serum, ip, 1.16 mg/kg; read-out: AUC0-4 h
Recorded Metric: AUC(0-t) (ng·h/mL)
# value in ng·h/mL; strip the unit string

According to the records, this compound Cc1ccccc1S(=O)(=O)N1C(c2ccc(Cl)cc2)C(C(=O)NC(Cc2ccccc2)C(N)=O)=CC1C(C)(C)C (stereo not shown) displays AUC(0-t) of 22200
